Experiment: folding stability dG unfold from chymotrypsin proteolysis; higher = more stable
Short version: folding stability dG unfold at least 1 kcal/mol is Yes, less is No.

> print(dat)
                               residuecodes  categorylabel
1  SMTLVGTTTLPNATVTTYKNETKYIVLTYDPVEAGEPAAVSYVEKYEGNKVVKKKKVAPEEIEKAIEELLSA [r9_57_JUSTAS]             No
2  SAGGSAGGSAGGLPEGWVLKTETKTVKLKVKVKVDGKEYEFEVEVKVTRIELVPKEELESAGGSAGGSAGGS [r10_300_TrROS_Hall]            Yes
3  SAGGSAGGSILVIKIKFPGNGRPIHYPIKDPEDFDRVLKKAKERFPGYDKDNIKEAEIYPLPPSAGGSAGGS [r12_852_TrROS]             No
4  SAGGKTITLPNGITITVNEDGTVTVTVTVDGKTLTVTVKVDSLEEALAAILEELRRLLKPPEVTVVKPSAGG [r13_896_TrROS_Hall]            Yes
5  SAGGSAGGSAGMKIEVFPNTIKIYPENGKVLTFEAPDFGEEAIKEIAKAFPNAKIEPVEPSAGGSAGGSAGG [r17_545_TrMRF]             No
6  SAGGSAGGSAKAVIFFEGASIEDVVEAVKARPEEEVLVVFPDGRVLLLTKDDVVVVVPAPFSAGGSAGGSAG [r3_269_TrMRF]            Yes
7  SAGGLPEEVEKLAEILAKLPPVVPVPVTFPDGVEVVYFPPTGFVAVRFYERDENGEWVLVGETFFPVSAGGS [r16_243_TrMRF]            Yes
